Cited source for all entries: patent US20240092784A1

STUDY TARGET: UniProt:P35270
Sequence (P35270 whole entry): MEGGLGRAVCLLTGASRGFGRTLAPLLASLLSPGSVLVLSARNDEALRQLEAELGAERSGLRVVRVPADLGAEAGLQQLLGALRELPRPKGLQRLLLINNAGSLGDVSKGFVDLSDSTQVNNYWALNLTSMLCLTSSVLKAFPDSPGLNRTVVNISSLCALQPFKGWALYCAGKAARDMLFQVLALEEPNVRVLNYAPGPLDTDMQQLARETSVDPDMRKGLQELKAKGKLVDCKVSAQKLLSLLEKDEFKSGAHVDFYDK
ASSAY METHOD TEXT: Evaluation Example 2: Measurement of human SPR inhibitory activity (seven concentrations, sepiapterin absorbance at 420 nm)
Assay type: biochemical
RUN CONDITIONS: Evaluation Example 2, seven concentrations 0.14 nM to 100 nM, 240 minutes at room temperature, read-out: IC50
Here the recorded IC50 is given for each entry.
ASSAY READOUT: IC50 (nM)

molecule=CC(C)Cn1c(=O)c(C(=O)NC2CC2)c(O)n2ncc(/C=C/C(=O)N(C)CC#N)c12 study_target=UniProt:P35270 reported_result=0.72
molecule=CC(C)Cn1c(=O)c(C(=O)NC2CC2)c(O)n2ncc(/C=C/C(=O)N(C)C3CCOCC3)c12 study_target=UniProt:P35270 reported_result=0.71
molecule="CC(C)Cn1c(=O)c(C(=O)NC2CC2)c(O)n2nc(O)cc12 [Synthesis Example 318]" study_target=UniProt:P35270 reported_result=1.43
molecule=CC(C)Cn1c(=O)c(C(=O)NC2CC2)c(O)n2ncc(/C=C/C(=O)N3CCOC[C@@H]3c3ccccc3)c12 study_target=UniProt:P35270 reported_result=1.32
molecule="CC(C)(C)Cn1c(=O)c(C(=O)NC2CC2)c(O)n2nc(-c3cc(C#N)n[nH]3)cc12 [Synthesis Example 296]" study_target=UniProt:P35270 reported_result=2.93
molecule="CC(C)(C)Cn1c(=O)c(C(=O)NC2CC2)c(O)n2nc3c(c12)CN(C1CCOCC1)C(=O)N3 [Synthesis Example 405]" study_target=UniProt:P35270 reported_result=0.77
molecule="CC(C)Cn1c(=O)c(C(=O)NC2CC2)c(O)n2ncc(C(=O)NCc3ccc(C(F)(F)F)nc3)c12 [Synthesis Example 226]" study_target=UniProt:P35270 reported_result=1.07
